Sourced from patent US20220380374A1

- study-system: wt human TYK2, catalytic site (Homo sapiens, UniProt P29597)
- Construct: 2 nM wt human TYK2, catalytic site (SignalChem/CAN)
- Sequence (P29597 897-1176 limits assumed): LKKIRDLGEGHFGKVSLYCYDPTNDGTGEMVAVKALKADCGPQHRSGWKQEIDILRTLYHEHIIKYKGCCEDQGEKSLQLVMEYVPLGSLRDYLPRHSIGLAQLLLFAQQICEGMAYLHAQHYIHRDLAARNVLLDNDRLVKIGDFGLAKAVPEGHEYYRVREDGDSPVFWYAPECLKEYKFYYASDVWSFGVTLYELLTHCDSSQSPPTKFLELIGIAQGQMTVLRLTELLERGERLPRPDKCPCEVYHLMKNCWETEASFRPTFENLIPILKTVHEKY
- experimental-protocol: HTRF KinEASE assay, TYK2
- condition-notes: 1 μM ATP; read-out: IC50, inhibitory activity toward TYK2
pIC50: −log10 of the molar value.
Could you please report measured pIC50 for the items listed next?

Please review the following examples before continuing.
# compound-string, pIC50
measured = [
    ("Fc1cc2c(cc1-c1ccnnc1)N=C(c1c(F)cccc1Cl)Nc1c[nH]nc1-2", "> 8.00"),
    ("Cc1cc2c(cc1C(=O)NC1CCOCC1)N=C(c1c(F)cccc1F)Nc1cn[nH]c1-2", "> 8.00"),
]

Look at each compound and report its pIC50.
1. CC[C@@H](C)Oc1cc2c(cc1F)-c1n[nH]cc1N=C(c1c(F)cccc1Cl)N2
2. Fc1cc2c(cc1OC1CCOCC1)N=C(c1c(F)cccc1C(F)(F)F)Nc1c[nH]nc1-2

result:
1. 7.00 to 8.00
2. 7.00 to 8.00

----------
- study-system: wt human TYK2, catalytic site (Homo sapiens)
- Construct: 2 nM wt human TYK2, catalytic site (SignalChem/CAN)
- experimental-protocol: HTRF KinEASE assay, TYK2
- condition-notes: 1 μM ATP; read-out: IC50, inhibitory activity toward TYK2
pIC50: −log10 of the molar value.
measure-name: pIC50

Please review the following examples before continuing.
# molecule, pIC50
rows = [
    ("FC(F)Oc1ccc2c(c1)-c1[nH]ncc1N=C(c1c(Cl)cccc1Cl)N2 [Compound 90]", "6.00 to 7.00"),
    ("CC[C@H](C)Oc1cc2c(cc1F)-c1n[nH]cc1N=C(c1c(F)cccc1Cl)N2 [Compound 247]", "7.00 to 8.00"),
    ("Fc1cccc(F)c1C1=Nc2cn[nH]c2-c2cn(-c3ccccc3)nc2N1 [Compound 68]", "7.00 to 8.00"),
    ("CC(C)(O)c1ccc2c(c1)NC(c1c(F)cccc1F)=Nc1cn[nH]c1-2 [Compound 98]", "7.00 to 8.00"),
    ("COc1cc2c(cn1)NC(c1c(F)cccc1F)=Nc1cn[nH]c1-2 [Compound 127]", "7.00 to 8.00"),
    ("Fc1ccc(-c2ccc3c(c2)N=C(c2c(Cl)cccc2Cl)Nc2c[nH]nc2-3)cc1 [Compound 242]", "> 8.00"),
]

Look at each molecule and report its pIC50.
1. Cc1ccc2c(c1)-c1n[nH]cc1NC(c1c(F)ccc(C(F)(F)F)c1F)=N2 [Compound 217]
2. CCNC(=O)c1cc2c(cc1Cl)-c1n[nH]cc1N=C(c1c(F)cccc1F)N2 [Compound 200]
3. OCc1ccc2c(c1)-c1[nH]ncc1N=C(c1c(F)cccc1F)N2 [Compound 50]
4. Cc1ccc2c(c1)-c1[nH]ncc1N=C(c1c(F)cccc1[N+](=O)[O-])N2 [Compound 125]

result:
6.00 to 7.00
7.00 to 8.00
6.00 to 7.00
6.00 to 7.00

Look at each molecule and report its pIC50.
1. COc1ccc2c(c1)N=C(c1c(F)cccc1F)Nc1cn[nH]c1-2 [Compound 49]
2. Fc1cccc(F)c1C1=Nc2cn[nH]c2-c2[nH]ncc2N1 [Compound 66]

result:
1: 7.00 to 8.00; 2: 7.00 to 8.00

Look at each molecule and report its pIC50.
1. Fc1cc(F)c(C2=Nc3ccc(Cl)cc3-c3n[nH]cc3N2)c(F)c1 [Compound 194]
2. COC(=O)Nc1ccc2c(c1)N=C(c1c(F)cccc1F)Nc1c[nH]nc1-2 [Compound 164]
3. Nc1ccc2c(c1)-c1[nH]ncc1N=C(c1c(F)cccc1F)N2 [Compound 103]
4. CCc1cc(F)c2c(c1)-c1[nH]nc(Cl)c1NC(c1c(F)cccc1F)=N2 [Compound 168]
5. Fc1cccc(F)c1C1=Nc2cn[nH]c2-c2cc(Cl)cnc2N1 [Compound 64]

result:
6.00 to 7.00
7.00 to 8.00
6.00 to 7.00
6.00 to 7.00
6.00 to 7.00

query: For wt human TYK2, catalytic site (Homo sapiens), provide pIC50 of O=C(NC1CCOCC1)c1ccc2c(c1)N=C(c1c(F)cccc1F)Nc1cn[nH]c1-2 [Compound 95] please.
result: > 8.00
